Entries and their measured soluble fraction (log2) follow.
Assay: soluble fraction after stress (log2 fold change); higher = more stays soluble; pooled small domains, quantitative proteomics
Conditions: stress: pH 4
value kind: soluble fraction (log2)

>>> numeric_value("HMKTLLSMNIKNLRKKKNMTLEELAEKVGTSKQTIQRYESGKISNIPSDKIELLAKYLDTTPAKLMGW")
0.187
>>> numeric_value("HMRFGNHHVYRTLMVLSDQKRKGRKQIADAVGIGEGSMRTIIEYLRGLDMIDIRQTGVKITRHGNAFL")
0.138
>>> numeric_value("HMQHQSGLKSGEFEAISQQLQALLKENPLSLQEIKDKMQVTENHLIKVVSYLVSEEIIRQENGYLK")
-1.67
>>> numeric_value("HMTGQHFDLEDTDGNLVYEIDSTVPLKTFYIYDAMHTEIFRMTKELLHALPTYRFYLYGEPYGVLKKQ")
-0.52
>>> numeric_value("HMRRKNQVQSSYQKRENGTYTVRFFLSDDMGSIMDLQLMATREDMARALRERFLKDPEKIYGQIMQMLLR")
0.241
>>> numeric_value("HMLMYAQDEKEEASNNIPYRLLHMSFTKEQKAELQRAMDVRVPKDIILSYFYPDTPVARMMEIRRQYESA")
0.12
>>> numeric_value("HMDWFDELKVSTDDSGRVTAPEESEFMFQTSNEKIFAGGDMVRGSDLVVTAIWEGRQAAEGIMDYLD")
-0.726
>>> numeric_value("HMSQVHYAVLFKNASAAEATEIVTYARETLGVQDIKINANGDILVPEDKVEEMRVSMSIAGFPK")
-0.349
